Values from patent US7803813B2

Where a name gives a salt, the structure may show the parent alone.
parameter: melting point

INPUT: Which melting point reading was recorded for the molecule CN1CCC(Nc2cccc(NC(=O)c3ccc(F)cc3Cl)c2)CC1.Cl.Cl ?
OUTPUT: 180 °C

INPUT: Which melting point reading was recorded for the molecule CN1CCC(N(C)c2cccc(NC(=O)c3c(Cl)cccc3Cl)c2)CC1.Cl ?
OUTPUT: 164.2 °C

INPUT: Which melting point reading was recorded for the molecule CN1CCC(N(C)c2cccc(NC(=O)c3cccs3)n2)CC1.Cl ?
OUTPUT: 126 to 128 °C

INPUT: Which melting point reading was recorded for the molecule CCN1CCC(N(C)c2cccc(NC(=O)c3ccc(F)cc3Cl)n2)CC1.Cl ?
OUTPUT: 132.9 °C

INPUT: Which melting point reading was recorded for the molecule CN1CCC(N(C)c2cccc(NC(=O)c3ccc(F)cc3C(F)(F)F)n2)CC1.Cl (hydrate or solvate) ?
OUTPUT: 100 to 102 °C

INPUT: Which melting point reading was recorded for the molecule CN1CCC(N(C)c2cccc(NC(=O)C3CCCCC3)n2)CC1.Cl ?
OUTPUT: 250 to 252 °C

INPUT: Which melting point reading was recorded for the molecule CN1CCC(N(C)c2cccc(NC(=O)c3c(F)cc(F)cc3F)n2)CC1.Cl (hydrate or solvate) ?
OUTPUT: 302 °C (dec.)

INPUT: Which melting point reading was recorded for the molecule C[C@@H]1C[C@H](Nc2cccc(NC(=O)c3ccc(F)cc3Cl)c2)CCN1C.Cl ?
OUTPUT: 159 to 162 °C

INPUT: Which melting point reading was recorded for the molecule CN1CCC(N(C)c2cccc(NC(=O)c3ccc(F)cc3)n2)CC1.Cl (hydrate or solvate) ?
OUTPUT: 250 to 252 °C

INPUT: Which melting point reading was recorded for the molecule CN1CCC(N(C)c2cc(F)cc(NC(=O)c3ccccc3Cl)c2)CC1 (as salt: hydrochloric acid salt) (hydrate or solvate) ?
OUTPUT: 170 to 175 °C

INPUT: Which melting point reading was recorded for the molecule CN1CCC(N(C)c2cccc(NC(=O)c3c(F)cccc3Cl)c2)CC1.Cl.Cl ?
OUTPUT: 214 to 217 °C

INPUT: Which melting point reading was recorded for the molecule Cl.Cl.O=C(Nc1cccc(NC2CCNCC2)c1)c1ccc(F)cc1Cl ?
OUTPUT: 255 to 257 °C

INPUT: Which melting point reading was recorded for the molecule CN1CCC(Nc2cccc(NC(=O)c3ccccc3Cl)c2)CC1.Cl.Cl ?
OUTPUT: 206 to 208 °C

INPUT: Which melting point reading was recorded for the molecule CN(c1cccc(NC(=O)c2ccc(F)cc2)n1)C1CCN(CC2CC2)CC1.Cl ?
OUTPUT: 81.6 °C

INPUT: Which melting point reading was recorded for the molecule CN1CCC(N(C)c2cc(F)cc(NC(=O)c3ccc(F)cc3F)c2)CC1 (as salt: hydrochloric acid salt) ?
OUTPUT: 175 °C

INPUT: Which melting point reading was recorded for the molecule C[C@H]1C[C@@H](Nc2cccc(NC(=O)c3ccc(F)cc3Cl)c2)CCN1C.Cl ?
OUTPUT: 91 to 94 °C

INPUT: Which melting point reading was recorded for the molecule CN1CCC(Nc2cccc(NC(=O)c3ccc(F)cc3F)c2)CC1.Cl.Cl ?
OUTPUT: 262 °C (dec.)

INPUT: Which melting point reading was recorded for the molecule CCCN1CCC(N(C)c2cccc(NC(=O)c3ccc(F)cc3Cl)n2)CC1.Cl ?
OUTPUT: 258 °C (dec.)

INPUT: Which melting point reading was recorded for the molecule CN1CCC(Nc2cccc(NC(=O)c3ccc(F)cc3C(F)(F)F)n2)CC1.Cl ?
OUTPUT: 84.9 °C
